Origin of values: ChEMBL document CHEMBL2331365

I'd be grateful if you could share measured log10 IC50 for these entries.
# system.tested: Transmembrane protease serine 4 (Homo sapiens)
# protocol.details: Inhibition of N-terminal His6-tagged recombinant TMPRSS4 (unknown origin) fused with enterokinase cleavage sequence DYKDDDGDYKDDDDK expressed in Escherichia coli BL21 (DE3) using Z-Phe-Arg-7-amido-4-methylcoumarin hydrochloride as substrate by fluorometric analysis
Heads up: the numbers are on a log10 scale; they represent IC50 in µM.

Data request: Given the entry O=C(Nc1cc(C(F)(F)F)c(Br)c(C(F)(F)F)c1)c1cc(Cl)ccc1O , what log10 IC50 was observed with Transmembrane protease serine 4 (Homo sapiens)?
Data returned: 0.78

Data request: For O=C(Nc1cnc2ccccc2c1)c1cc(Cl)ccc1O then?
Data returned: 1.93

Data request: For Cc1c(C(F)(F)F)cc(NC(=O)c2cc(Cl)ccc2O)cc1C(F)(F)F then?
Data returned: 1.00

Data request: For O=C(Nc1cc(Br)cc(C(F)(F)F)c1)c1cc(Cl)ccc1O then?
Data returned: 1.08

Data request: For O=C(Nc1ccc(C(F)(F)F)c(C(F)(F)F)c1)c1cc(Cl)ccc1O then?
Data returned: 1.11

Data request: For O=C(Nc1cc(C(F)(F)F)cc(C(F)(F)F)c1)c1cc(F)ccc1O then?
Data returned: 1.46

* * *

# system.tested: Transmembrane protease serine 4 (Homo sapiens, UniProt Q9NRS4)
# Sequence (Q9NRS4 whole entry, the tested form may be a part): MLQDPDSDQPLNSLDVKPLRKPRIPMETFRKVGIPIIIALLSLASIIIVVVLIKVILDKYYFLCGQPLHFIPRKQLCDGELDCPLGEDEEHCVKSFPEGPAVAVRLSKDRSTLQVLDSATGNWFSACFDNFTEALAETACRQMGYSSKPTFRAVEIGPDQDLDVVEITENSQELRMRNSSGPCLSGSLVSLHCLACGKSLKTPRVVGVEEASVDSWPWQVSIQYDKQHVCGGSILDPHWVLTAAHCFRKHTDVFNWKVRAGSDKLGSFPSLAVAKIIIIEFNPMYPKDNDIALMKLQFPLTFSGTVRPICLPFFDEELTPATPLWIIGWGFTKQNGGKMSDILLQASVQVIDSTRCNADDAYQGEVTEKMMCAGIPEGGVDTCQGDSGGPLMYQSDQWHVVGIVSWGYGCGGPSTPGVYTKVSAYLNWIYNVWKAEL
# protocol.details: Inhibition of N-terminal His6-tagged recombinant TMPRSS4 (unknown origin) fused with enterokinase cleavage sequence DYKDDDGDYKDDDDK expressed in Escherichia coli BL21 (DE3) using Z-Phe-Arg-7-amido-4-methylcoumarin hydrochloride as substrate by fluorometric analysis
I'd be grateful if you could share measured IC50 for these entries.
Give the value, in units of µM, as a plain number.

Data request: Given the entry O=C(Nc1cc(C(F)(F)F)cc(C(F)(F)F)c1)c1cccc(Cl)c1O , what IC50 was observed with Transmembrane protease serine 4 (Homo sapiens, UniProt Q9NRS4)?
Data returned: 12

Data request: For O=C(Nc1cc(C(F)(F)F)ccc1C(F)(F)F)c1cc(Cl)ccc1O then?
Data returned: 20

Data request: For O=C(Nc1cc(C(F)(F)F)ccc1F)c1cc(Cl)ccc1O then?
Data returned: 28

Data request: For O=C(Nc1ccc(Cl)c(C(F)(F)F)c1)c1cc(Cl)ccc1O then?
Data returned: 35

Data request: For O=C(Nc1cc(C(F)(F)F)cc(C(F)(F)F)c1)c1cc([N+](=O)[O-])ccc1O then?
Data returned: 12

Data request: For COc1c(C(F)(F)F)cc(NC(=O)c2cc(Cl)ccc2O)cc1C(F)(F)F then?
Data returned: 12

Data request: For O=C(Nc1cc(C(F)(F)F)cc(C(F)(F)F)c1)c1cc(Cl)ccc1O [IMD-0354] then?
Data returned: 11

Data request: For O=C(Nc1ccc(Br)c(C(F)(F)F)c1)c1cc(Cl)ccc1O then?
Data returned: 30

Data request: For NCCc1ccc(S(=O)(=O)F)cc1 then?
Data returned: 39

Data request: For COc1cc(NC(=O)c2cc(Cl)ccc2O)cc(C(F)(F)F)c1 then?
Data returned: 16

Data request: For N#Cc1ccc(NC(=O)c2cc(Cl)ccc2O)cc1 then?
Data returned: 76

Data request: For COc1ccc(O)c(C(=O)Nc2cc(C(F)(F)F)cc(C(F)(F)F)c2)c1 then?
Data returned: 29

Data request: For N#Cc1ccc(NC(=O)c2cc(Cl)ccc2O)nc1 then?
Data returned: 80

Data request: For Cc1ccc(O)c(C(=O)Nc2cc(C(F)(F)F)cc(C(F)(F)F)c2)c1 then?
Data returned: 28

Data request: For O=C(NCc1cc(C(F)(F)F)cc(C(F)(F)F)c1)c1cc(Cl)ccc1O then?
Data returned: 18

Data request: For N#Cc1ccc(O)c(C(=O)Nc2cc(C(F)(F)F)cc(C(F)(F)F)c2)c1 then?
Data returned: 19

* * *

I'd be grateful if you could share measured pIC50 for these entries.
# system.tested: Transmembrane protease serine 4 (Homo sapiens)
# protocol.details: Inhibition of N-terminal His6-tagged recombinant TMPRSS4 (unknown origin) fused with enterokinase cleavage sequence DYKDDDGDYKDDDDK expressed in Escherichia coli BL21 (DE3) using Z-Phe-Arg-7-amido-4-methylcoumarin hydrochloride as substrate by fluorometric analysis
// field semantics: pIC50 = negative decimal log of concentration (mol/L)

Data request: Consider the compound shown here: O=C(Nc1cccc(C(F)(F)F)c1)c1cc(Cl)ccc1O What is its recorded pIC50?
Data returned: 4.89

Data request: For O=C(Nc1cc(C(F)(F)F)cc(C(F)(F)F)c1)c1ccc(Cl)cc1O then?
Data returned: 4.92

Data request: For Cc1cc(C)cc(NC(=O)c2cc(Cl)ccc2O)c1 then?
Data returned: 4.41

Data request: For O=C(Nc1ccccc1)c1cc(Cl)ccc1O then?
Data returned: 4.30

Data request: For O=C(Nc1cc(C(F)(F)F)cc(C(F)(F)F)c1)c1cc(Br)ccc1O then?
Data returned: 4.89

Data request: For O=C(Nc1cc(Cl)cc(Cl)c1)c1cc(Cl)ccc1O then?
Data returned: 4.72
